Cited source for all entries: ChEMBL document CHEMBL1629531

# ASSAY METHOD TEXT: Inhibition of alpha-glucosidase at 200 uM using para-nitrophenyl substrate
Entries and their inhibition values follow.
PROPERTY NAME: inhibition

smiles=COc1ccc2c(OC)cc(=O)oc2c1C result="< 20%"
smiles=Cc1ccc2oc(=O)cc(O)c2c1 result="< 20%"
smiles=O=c1ccc2cc(O)c(O)cc2o1 result="< 20%"
smiles=O=c1ccc2cc(O)ccc2o1 result="< 20%"

* * *

The following compounds are shown together with reported pIC50 values.
# ASSAY METHOD TEXT: Inhibition of alpha-glucosidase using para-nitrophenyl substrate
pIC50: −log10 of the molar value.
PROPERTY NAME: pIC50

compound=Cc1cc(=O)oc2cc(O)ccc12 censoring_sign== measured_number=4.25
compound="O=c1oc2ccccc2cc1O [3-HYDROXYCOUMARIN]" censoring_sign== measured_number=4.45
compound="Cc1cc(=O)oc2cc(O)cc(O)c12 [5,7-DIHYDROXY-4-METHYLCOUMARIN]" censoring_sign== measured_number=4.19
compound=Cc1cc(=O)oc2c(O)c(O)ccc12 censoring_sign== measured_number=4.28
compound=O=c1c(-c2ccc(O)cc2)coc2cc(O)cc(O)c12 censoring_sign== measured_number=4.91
compound=COc1ccc2c(O)cc(=O)oc2c1 censoring_sign== measured_number=4.02
compound=Cc1c(O)ccc2c(O)cc(=O)oc12 censoring_sign== measured_number=4.30
compound=Cc1cc(=O)oc2cc(O)c(O)cc12 censoring_sign== measured_number=4.03
compound=O=c1cc(O)c2ccc(O)cc2o1 censoring_sign== measured_number=4.41
compound=OC[C@H]1NC[C@H](O)[C@@H](O)[C@@H]1O censoring_sign== measured_number=4.45
compound=COc1ccc2c(OC)cc(=O)oc2c1 censoring_sign=< measured_number=4.00
compound=O=c1oc2cc(O)ccc2c(O)c1-c1c(O)ccc(O)c1-c1c(O)c2ccc(O)cc2oc1=O censoring_sign== measured_number=6.07
